Target: Gag-Pol polyprotein (Human immunodeficiency virus type 1 group M subtype B (isolate HXB2)) (UniProt P04585)
Assay: HIV-1 RT RNase H inhibitors, retest, confirmation, biochemical (AID 651)
Settings: Recombinant RT RNase H, fluorescent RNA/DNA duplex cleavage; at 10 µM; active compounds read high
Among all 1,000 compounds or so, about 390 (39%) were called active. Not shown: some 8% with an inconclusive outcome. The list is a sample of the results.

{"COMPOUND": "Cc1ccnc(N2CCCC(C(=O)Nc3cc(F)ccc3C)C2)n1 (centres undefined)", "inhibition [%]": 9.38}
{"COMPOUND": "CCOC(=O)N1CCN(CC(=O)c2ccc3c(c2)CCN3)CC1", "inhibition [%]": 15.5}
{"COMPOUND": "CCCCOC(=O)CNc1nnc(SCC(=O)OCC)[nH]c1=O", "inhibition [%]": 43.7}
{"COMPOUND": "Clc1ccccc1CSc1nnc(-c2ccco2)c(-c2ccco2)n1", "inhibition [%]": 18.5}
{"COMPOUND": "CCC(C)Sc1nc2c(c(=O)[nH]c(=O)n2C)n1CC(O)COc1cccc2ccccc12 (centres undefined)", "inhibition [%]": 68.7}
{"COMPOUND": "COc1cc(C(=O)Nc2oc(-c3ccccc3)c(-c3ccccc3)c2C#N)cc(OC)c1OC", "inhibition [%]": 53.6}
{"COMPOUND": "Cc1cc(C(F)(F)F)nn1-c1nc(-c2ccco2)cc(C(F)(F)F)n1", "inhibition [%]": 38}
{"COMPOUND": "Cc1noc(C)c1CSc1nc2cc(S(=O)(=O)N3CCOCC3)ccc2o1", "inhibition [%]": 61}
{"COMPOUND": "CC(C)CNC(=O)C1CCCN(S(=O)(=O)c2ccc(-n3cnnn3)cc2)C1 (centres undefined)", "inhibition [%]": 40.6}
{"COMPOUND": "Cc1ccnc(-n2sc3ccccc3c2=O)n1", "inhibition [%]": 60}
{"COMPOUND": "CCN(CC)c1ccc2oc(=O)c(C)nc2c1", "inhibition [%]": 0.308}
{"COMPOUND": "CCC1=[N+]([O-])C(C)(/C(C)=N\\O)N(O)C1(C)C (centres undefined)", "inhibition [%]": 32}
{"COMPOUND": "CCOC(=O)c1sc(=S)n2c1[nH]c(=O)c1ccc(C(=O)OC)cc12", "inhibition [%]": 73.8}
{"COMPOUND": "c1ccc(CSc2nnc(-c3ccco3)c(-c3ccco3)n2)cc1", "inhibition [%]": 42.2}

Data provenance is PubChem BioAssay AID651.
